Here, each record is paired with measured EC50 data.
- tested-target: Trace amine-associated receptor 1 (Homo sapiens)
- Sequence (Q96RJ0 whole entry): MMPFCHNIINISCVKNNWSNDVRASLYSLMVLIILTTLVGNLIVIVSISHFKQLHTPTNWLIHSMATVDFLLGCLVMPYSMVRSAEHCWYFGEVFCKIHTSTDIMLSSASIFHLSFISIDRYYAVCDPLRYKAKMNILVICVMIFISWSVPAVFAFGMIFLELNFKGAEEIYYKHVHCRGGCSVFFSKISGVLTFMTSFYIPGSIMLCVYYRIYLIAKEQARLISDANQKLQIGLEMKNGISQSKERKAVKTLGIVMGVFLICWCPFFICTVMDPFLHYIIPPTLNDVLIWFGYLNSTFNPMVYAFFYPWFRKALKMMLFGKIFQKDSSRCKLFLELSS
- assay-name: Fluorescence-based cell-based high throughput dose response assay to identify agonists of the human trace amine associated receptor 1 (TAAR1).
- Type: functional
Activity calls are given as the source filed them. Cut-off read from the data, not from the text of the source: active = EC50 of 10 µM or less and inactive = more.

Entry O=C(CN1CCc2ccccc2C1)Nc1ccccc1C(F)(F)F : reported EC50 = ? 3.55 µM (active)

Entry O=C(COC(=O)Cc1ccccc1F)NCCc1ccccc1 : reported EC50 = ? > 9.96 µM (active)

Entry CCOC(=O)N[C@H](C(=O)N1CCC[C@H]1C(=O)NCCc1ccccc1Cl)c1ccccc1 : reported EC50 = ? 2.06 µM (active)

Entry Nc1nc(-c2ccccc2)cn1/N=C/c1ccccc1 : reported EC50 = ? 1.49 µM (active)

Entry NNc1nc(Nc2ccccc2)nc(N2CCCCC2)n1 : reported EC50 = ? 3.48 µM (active)

// provenance: ChEMBL document CHEMBL1201862
